- measurement_notes: Solubility of SPI-001
- Format: physicochemical
- run_parameters: ethanol, organic solvent or mixture; read-out: solubility in ethanol
- Method: Based on chemical synthesis of SPI-001 and mass spec analysis, the compound has a molecular weight of <500. It is not a protein or peptide, but is a small molecule. SPI-001 is soluble in dimethyl sulfoxide (DMSO) and ethanol to 100 mg/ml. […] SPI-001 can be resuspended in 25% polyethylene glycol (PEG) 400 for oral delivery.
quantity_kind: solubility (mg/mL)
Kindly provide the numeric value in mg/mL only, without the unit symbol.

Exam item: Using the record for CCCCCCCCCCC[C@H]1CCC[C@H](C)N1 (relative stereo) [SPI-001, trans-2-methyl 6-n-undecylpiperidine] , state its measured solubility.
Marked response: 100

====

- measurement_notes: Solubility of SPI-001
- Assay type: physicochemical
- run_parameters: dimethyl sulfoxide (DMSO), organic solvent or mixture; read-out: solubility in dimethyl sulfoxide (DMSO)
- Experimental: Based on chemical synthesis of SPI-001 and mass spec analysis, the compound has a molecular weight of <500. It is not a protein or peptide, but is a small molecule. SPI-001 is soluble in dimethyl sulfoxide (DMSO) and ethanol to 100 mg/ml. […] SPI-001 can be resuspended in 25% polyethylene glycol (PEG) 400 for oral delivery.
quantity_kind: solubility (mg/mL)
Express your answer in mg/mL, writing the number without its unit.

Exam item: Tell me its solubility given CCCCCCCCCCC[C@H]1CCC[C@H](C)N1 (relative stereo) [SPI-001, trans-2-methyl 6-n-undecylpiperidine] as the entry.
Marked response: 100
